Reported IC50 is given for each of the following molecules.
# target-entity: one or more of HDAC-4, HDAC-5, HDAC-6, HDAC-7, HDAC-8, HDAC-9, HDAC-10 and HDAC-11
# method-summary: Inhibition of histone deacetylase enzymatic activity (summary statement over isoforms)
# condition-context: Table 3, selected examples; HDAC isoform not given

Recorded results for 3 molecules are shown here.
O=C(NO)C1(c2ccc(F)cc2)CCCC1 [Compound 5-120] | 1000 to 15000 nM
Cc1ccc(C(C(=O)NO)c2ccc(N3CCOCC3)cc2)cc1 (centres unmarked) [Compound 5-115] | 1000 to 15000 nM
O=C(NO)C(c1ccccc1)c1ccc(OCCOc2ccccc2)cc1 (centres unmarked) [Compound 3-64] | < 1000 nM

input: Give IC50 for the following molecule: O=C(NO)C(c1ccccc1)c1cccc(-c2ccccc2)c1 (centres unmarked) [Compound 5-29]
output: < 1000 nM

input: Give IC50 for the following molecule: O=CN(O)C(c1ccccc1)c1ccc(OCc2ccccc2)cc1 (centres unmarked) [Compound 5-98]
output: 1000 to 15000 nM

input: Give IC50 for the following molecule: O=C(NO)C(c1ccccc1)c1ccc(OCCOCc2ccccc2)cc1 (centres unmarked) [Compound 3-68]
output: < 1000 nM

---

# target-entity: one or more of HDAC-4, HDAC-5, HDAC-6, HDAC-7, HDAC-8, HDAC-9, HDAC-10 and HDAC-11
# method-summary: Inhibition of histone deacetylase enzymatic activity (summary statement over isoforms)
# condition-context: Table 3, selected examples; HDAC isoform not given
pIC50: −log10 of the molar value.
Reported pIC50 is given for each of the following molecules.

O=C(Nc1ccc(C(C(=O)NO)c2ccccc2)cc1)c1cccc(Cl)c1 (centres unmarked) | > 6.00
O=C(COc1ccccc1)Nc1cccc(C(C(=O)NO)c2ccccc2)c1 (centres unmarked) | > 6.00
O=C(CC(c1ccccc1)c1ccccc1)NO [Compound 1-6, N-hydroxy-3,3-diphenylpropanamide] | > 6.00

input: Give pIC50 for the following molecule: O=C(NO)C(c1ccccc1)c1nnc(Cc2c[nH]c3ccccc23)s1 (centres unmarked)
output: > 6.00

input: Give pIC50 for the following molecule: O=C(NO)C(c1ccc(N2CCOCC2)cc1)c1cccc(OC(F)(F)F)c1 (centres unmarked)
output: 4.82 to 6.00

input: Give pIC50 for the following molecule: Cc1ccccc1C(C(=O)NO)c1ccc(N2CCOCC2)cc1 (centres unmarked)
output: > 6.00

---

# target-entity: one or more of HDAC-4, HDAC-5, HDAC-6, HDAC-7, HDAC-8, HDAC-9, HDAC-10 and HDAC-11
# method-summary: Inhibition of histone deacetylase enzymatic activity (summary statement over isoforms)
# condition-context: Table 3, selected examples; HDAC isoform not given
reported-endpoint: IC50

Recorded results for 4 molecules are shown here.
O=C(NO)C(Oc1ccccc1F)c1ccccc1 (centres unmarked) [Compound 7-5] | 1000 to 15000 nM
O=C(NO)C(C(=O)Nc1cccc(C(F)(F)F)c1)c1ccccc1 (centres unmarked) [Compound 1-33] | < 1000 nM
O=C(NO)C(Sc1nc2cc(Cl)ccc2s1)c1ccccc1 (centres unmarked) [Compound 5-59] | < 1000 nM
O=C(NO)C1(c2ccc(F)cc2)CCCCC1 [Compound 5-119] | 1000 to 15000 nM

Now, please, on to the next molecule.
input: Give IC50 for the following molecule: CC(C)c1ccc(SC(C(=O)NO)c2ccccc2)cc1 (centres unmarked) [Compound 2-21]
output: 1000 to 15000 nM

Recorded values, source patent US9096565B2.
